# MEASURED_ON: furin, P09958
# Sequence (P09958 whole entry): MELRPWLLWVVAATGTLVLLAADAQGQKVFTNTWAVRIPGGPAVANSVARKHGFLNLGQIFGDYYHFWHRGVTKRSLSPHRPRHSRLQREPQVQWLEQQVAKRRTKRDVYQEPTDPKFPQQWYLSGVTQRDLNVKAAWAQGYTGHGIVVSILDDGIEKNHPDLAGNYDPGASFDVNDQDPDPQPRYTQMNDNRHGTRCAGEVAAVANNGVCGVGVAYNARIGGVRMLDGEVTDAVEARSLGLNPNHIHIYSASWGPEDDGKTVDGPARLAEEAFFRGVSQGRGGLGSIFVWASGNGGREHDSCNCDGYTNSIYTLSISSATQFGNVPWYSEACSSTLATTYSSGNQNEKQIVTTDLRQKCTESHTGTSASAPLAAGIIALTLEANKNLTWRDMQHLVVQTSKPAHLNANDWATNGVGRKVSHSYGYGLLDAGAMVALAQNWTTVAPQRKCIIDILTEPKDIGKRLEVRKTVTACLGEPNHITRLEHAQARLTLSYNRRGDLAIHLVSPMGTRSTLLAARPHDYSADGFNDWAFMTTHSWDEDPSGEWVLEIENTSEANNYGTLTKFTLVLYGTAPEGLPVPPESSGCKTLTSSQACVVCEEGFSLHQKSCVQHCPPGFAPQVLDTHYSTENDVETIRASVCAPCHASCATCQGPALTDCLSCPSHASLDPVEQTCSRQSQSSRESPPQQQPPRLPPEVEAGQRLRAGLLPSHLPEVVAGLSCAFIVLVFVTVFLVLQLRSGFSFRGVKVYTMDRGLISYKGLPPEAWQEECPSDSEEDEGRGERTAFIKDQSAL
# TEST_PROTOCOL: furin cleavage Z-score vs untreated control; higher = more cleavage, active = 3.5 or more, inactive = 1 or less, 8 variable residues between constant flanks;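 also: purified furin at 1:10 enzyme:substrate in 50 mM HEPES pH 7.5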
# CONDITIONS: 30 min
This is one part of the list. No count for the full screen is at hand.
Mark -1 for furin cleavage Z-score values under -0.4, and 1 for everything at or above.

// known answers, use as guide
> print(dat)
                 input.sequence  classification
1   CAIREVPCHRAGNASASA [HC2424]               1
2    CACINGVCWTAGNASASA [HC697]              -1
3   CAEISRKRRSAGNASASA [FS-649]               1
4  CARKRRAPHGAGNASASA [FS-2493]               1
5    CAVAHLHAPTAGNASASA [HC773]               1
6  CARKRRRQHGAGNASASA [FS-2974]               1

Item CAAFRRGVTKAGNASASA [FS-1876] with furin cleavage Z-score of -0.4 or above?
-1

Item CAFDEMEECSAGNASASA [HC1013] with furin cleavage Z-score of -0.4 or above?
1
